tested on: 521955-158-R2-J5-PDC complex spheroid viability; experiment: Anticancer human tumor 521955-158-R2-J5-PDC patient-derived pancreatic carcinoma cell line growth inhibition [GQUAD]; conditions: second compound 0.0316 µM; first compound 0.000999 µM; active compounds read low;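 note: spheroids exposed to agents for one week before reading; 100% = DMSO vehicle control viability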
measuredQuantity: viability, T/C (%)

[[record]]
compound = "CCc1c2c(nc3ccc(O)cc13)-c1cc3c(c(=O)n1C2)COC(=O)[C@]3(O)CC + CN(C)c1ccc(Nc2c3ccc(NC(=O)CCN4CCCC4)cc3nc3cc(NC(=O)CCN4CCCC4)ccc23)cc1"
units = "%"
observedresult = 74.6

[[record]]
compound = "CC[C@@]1(O)C(=O)OCc2c1cc1n(c2=O)Cc2cc3c(CN(C)C)c(O)ccc3nc2-1 + Cc1cnc(CNC(=O)c2c(=O)c3ccc(N4CCCN(C)CC4)nc3n3c2sc2ccccc23)cn1"
units = "%"
observedresult = 82.3

[[record]]
compound = "CC[C@@]1(O)C(=O)OCc2c1cc1n(c2=O)Cc2cc3c(CN(C)C)c(O)ccc3nc2-1 + Cc1[nH]c2ccc(F)cc2c1-c1nc2c3cccnc3c3ncccc3c2[nH]1"
units = "%"
observedresult = 108

[[record]]
compound = "Cn1ncnc1[C@H]1c2n[nH]c(=O)c3cc(F)cc(c23)N[C@@H]1c1ccc(F)cc1 + Cc1cnc(CNC(=O)c2c(=O)c3ccc(N4CCCN(C)CC4)nc3n3c2sc2ccccc23)cn1"
units = "%"
observedresult = 85.8

[[record]]
compound = "Cn1ncnc1[C@H]1c2n[nH]c(=O)c3cc(F)cc(c23)N[C@@H]1c1ccc(F)cc1 + Cc1[nH]c2ccc(F)cc2c1-c1nc2c3cccnc3c3ncccc3c2[nH]1"
units = "%"
observedresult = 95.7

